Can you tell me Selectivity MMP-2/13 for the items I'm about to list?
molecular target: MMP-13 (Homo sapiens, UniProt P45452); construct: Catalytic domains of MMP-2, -8, -9, and -13 were obtained from Enzo Life Sciences; purchased Enzo Life Sciences; assay: fluorometric MMP inhibition assay, MMP-13 catalytic domain; type: biochemical; details: ratio of IC50 values of Table 2

Recorded Selectivity MMP-2/13 of O=C(Nc1ccc2nc(NC(P(=O)(O)O)P(=O)(O)O)sc2c1)c1ccc(Br)cc1 [Compound 6] , please. 2.06

What does the data say about its Selectivity MMP-2/13? Entry: O=[N+]([O-])c1ccc2nc(NC(P(=O)(O)O)P(=O)(O)O)sc2c1 [Compound 4] 2.00

Need Selectivity MMP-2/13 of O=P(O)(O)C(Nc1nc2ccc(F)cc2s1)P(=O)(O)O [Compound 2] , thanks. 2.12

I'd like to know its Selectivity MMP-2/13. The compound in question is O=C1c2ccccc2C(=O)N1c1ccc2nc(NC(P(=O)(O)O)P(=O)(O)O)sc2c1 [Compound 10] 0.16

Given the entry O=P(O)(O)C(Nc1nc2ccc(Cl)cc2s1)P(=O)(O)O [Compound 3] , report its measured Selectivity MMP-2/13. 2.15

# Selectivity MMP-2/13 lookup, item O=C(Nc1ccc2nc(NC(P(=O)(O)O)P(=O)(O)O)sc2c1)c1ccccc1 [Compound 5] 1.73

What value of Selectivity MMP-2/13 has been reported for the following compound? O=P(O)(O)C(Nc1nc2ccccc2s1)P(=O)(O)O [Compound 1] 1.95

// query Selectivity MMP-2/13 value for entry O=C(Nc1ccc2nc(NC(P(=O)(O)O)P(=O)(O)O)sc2c1)c1ccc([N+](=O)[O-])cc1 [Compound 7] 1.96

What value of Selectivity MMP-2/13 has been reported for the following compound? O=P(O)(O)C(NS(=O)(=O)c1ccc(-c2ccccc2)cc1)P(=O)(O)O [ML115, reference compound] 0.23

// lookup Selectivity MMP-2/13 for O=C(Nc1ccccc1)Nc1ccc2nc(NC(P(=O)(O)O)P(=O)(O)O)sc2c1 [Compound 9] 0.26

# lookup: Selectivity MMP-2/13 of O=C(Cc1ccccc1)Nc1ccc2nc(NC(P(=O)(O)O)P(=O)(O)O)sc2c1 [Compound 8] 0.26

Requested field: Selectivity MMP-2/13. Item: CC(N)C(=O)Nc1ccc2nc(NC(P(=O)(O)O)P(=O)(O)O)sc2c1 (stereo not shown) [Compound 11] 0.15

Requested read-out: Selectivity MMP-2/13. Entry: O=P(O)(O)C(CNc1nc2ccc(Cl)cc2s1)P(=O)(O)O [Compound 12] 5.73
